ASSAY SYSTEM: Cbl-b (Homo sapiens (Human), UniProt Q13191)
Sequence (Q13191 40-426): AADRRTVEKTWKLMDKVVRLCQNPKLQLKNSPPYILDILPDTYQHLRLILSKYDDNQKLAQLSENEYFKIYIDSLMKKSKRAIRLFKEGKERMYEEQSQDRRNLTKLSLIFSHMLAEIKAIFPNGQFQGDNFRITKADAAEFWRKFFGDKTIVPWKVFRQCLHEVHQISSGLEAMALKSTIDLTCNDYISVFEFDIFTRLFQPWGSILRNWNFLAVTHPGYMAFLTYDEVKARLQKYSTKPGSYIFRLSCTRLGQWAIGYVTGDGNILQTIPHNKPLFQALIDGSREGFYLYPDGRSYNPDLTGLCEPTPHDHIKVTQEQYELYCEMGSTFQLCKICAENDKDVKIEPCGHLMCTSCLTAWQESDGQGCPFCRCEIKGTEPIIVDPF
ASSAY OVERVIEW: Cbl-b LCK Ub TR-FRET assay (Cbl-b Lck HTRF)
Type: biochemical
pIC50: −log10 of the molar value.
QUANTITY MEASURED: pIC50

Example entries and their recorded answers appear below.
# COMPOUND, pIC50
rows = [
    ("CCCNCc1cc2c(c(C(F)(F)F)c1)CN(c1cccc(C3([C@@H](F)c4nncn4C)CC(F)(F)C3)c1)C2=O [Compound 445]", 7.59),
    ("COCC1(F)CN(Cc2cc3c(c(C(F)(F)F)c2)CN(c2cccc(C4([C@H](F)c5nncn5C)COC4)c2)C3=O)C1 [Compound 136]", 6.55),
    ("CC(C)C1(O)CN(Cc2cc3c(c(C(F)(F)F)c2)CN(c2cccc(C4([C@H](F)c5nncn5C)COC4)c2)C3=O)C1 [Compound 184]", 6.80),
]

I: CC(=O)Nc1cc(C2(Cc3nncn3C)CCC2)cc(N2Cc3c(cc(CN4CCN(C)C[C@@H]4C(C)C)cc3C(F)(F)F)C2=O)n1 [Compound 330]
II: Cc1ncnn1CC1(c2cccc(N3Cc4c(cc(CN5CCN(C)C[C@@H]5C(C)C)cc4C(F)(F)F)C3=O)c2)COC1 [Compound 254]
I need your help: which of the pair I , II has higher pIC50? Answer by stating the label of the chosen item.
I

a: Cn1cnnc1[C@H](F)C1(c2cccc(N3Cc4c(cc(CNC5(C)CCC5)cc4C(F)(F)F)C3=O)c2)COC1 [Compound 494]
b: C=CC1(O)CN(Cc2cc3c(c(C(F)(F)F)c2)CN(c2cccc(C4([C@@H](F)c5nncn5C)COC4)c2)C3=O)C1 [Compound 169]
Hey, between a and b which has a smaller measured pIC50? Answer by stating the label of the chosen item.
b

I: Cn1cnnc1CC1(c2cc(CC3CCCC3)nc(N3Cc4c(cccc4C(F)(F)F)C3=O)c2)COC1 [Compound 292]
II: Cn1cnnc1[C@@H](F)C1(c2cccc(N3Cc4c(cc(CN5CCC(F)(CO)CC5)cc4C(F)(F)F)C3=O)c2)COC1 [Compound 134]
III: Cn1cnnc1[C@@H](F)[C@](C)(F)c1cccc(N2Cc3c(cc(CN4CC(C)(F)C4)cc3C(F)(F)F)C2=O)c1 [Compound 34]
IV: CN(C)Cc1cccc(CNc2cc(C3(Cc4nncn4C)CCC3)cc(N3Cc4c(cc(CNC5(C)CCC5)cc4C(F)(F)F)C3=O)n2)c1 [Compound 318]
Put the entries in order of pIC50, starting with the largest number. Returns: the labels arranged in the requested order.
IV, II, III, I
(IV: 6.89, II: 6.68, III: 6.42, I: 5.47)
